System: Zymoseptoria tritici
Experiment: Growth of the primary hypha on PG solid medium
Assay type: cell-based
Conditions: 48 h, isolate ST5548, 48 hours, read-out: EC50
Readout kind: pEC50
// pEC50: -log10(molar conc.)

Entry O=C(O)CCCc1ccccc1 , pEC50 reported as 2.88

###

System: Botrytis cinerea (BMM strain)
Test: Radial growth of the mycelium on solid PDA medium
Details: Botrytis cinerea, read-out: EC50 (median inhibitory concentration, radial growth halved)
Readout kind: EC50

Entry O=C(O)CCCc1ccccc1 , EC50 reported as 2 to 3 mM

###

Test system: Zymoseptoria tritici
Assay: Growth of the primary hypha on PG solid medium
Assay type: cell-based
Conditions: 48 h, isolate 14-FT-A1, 48 hours, read-out: EC50
Readout kind: EC50 (mM)
# output: bare number, implied unit mM

Entry O=C(O)CCCc1ccccc1 , EC50 reported as 1.32

###

Tested on: Helmintosporium teres
Test: Radial growth of the mycelium
Assay type: cell-based
Conditions: 240 h; time 10 days (day control colonized the whole Petri dish)
Readout kind: pEC50
// pEC50: -log10(molar conc.)

Entry O=C(O)CCCc1ccccc1 , pEC50 reported as 8.18
